- SUBJECT OF TEST: EGFR TMLRCS (T790M/L858R/C797S) (Homo sapiens, UniProt P00533, C797S/L858R/T790M)
- Sequence (P00533 25-1210 T790M/C797S/L858R): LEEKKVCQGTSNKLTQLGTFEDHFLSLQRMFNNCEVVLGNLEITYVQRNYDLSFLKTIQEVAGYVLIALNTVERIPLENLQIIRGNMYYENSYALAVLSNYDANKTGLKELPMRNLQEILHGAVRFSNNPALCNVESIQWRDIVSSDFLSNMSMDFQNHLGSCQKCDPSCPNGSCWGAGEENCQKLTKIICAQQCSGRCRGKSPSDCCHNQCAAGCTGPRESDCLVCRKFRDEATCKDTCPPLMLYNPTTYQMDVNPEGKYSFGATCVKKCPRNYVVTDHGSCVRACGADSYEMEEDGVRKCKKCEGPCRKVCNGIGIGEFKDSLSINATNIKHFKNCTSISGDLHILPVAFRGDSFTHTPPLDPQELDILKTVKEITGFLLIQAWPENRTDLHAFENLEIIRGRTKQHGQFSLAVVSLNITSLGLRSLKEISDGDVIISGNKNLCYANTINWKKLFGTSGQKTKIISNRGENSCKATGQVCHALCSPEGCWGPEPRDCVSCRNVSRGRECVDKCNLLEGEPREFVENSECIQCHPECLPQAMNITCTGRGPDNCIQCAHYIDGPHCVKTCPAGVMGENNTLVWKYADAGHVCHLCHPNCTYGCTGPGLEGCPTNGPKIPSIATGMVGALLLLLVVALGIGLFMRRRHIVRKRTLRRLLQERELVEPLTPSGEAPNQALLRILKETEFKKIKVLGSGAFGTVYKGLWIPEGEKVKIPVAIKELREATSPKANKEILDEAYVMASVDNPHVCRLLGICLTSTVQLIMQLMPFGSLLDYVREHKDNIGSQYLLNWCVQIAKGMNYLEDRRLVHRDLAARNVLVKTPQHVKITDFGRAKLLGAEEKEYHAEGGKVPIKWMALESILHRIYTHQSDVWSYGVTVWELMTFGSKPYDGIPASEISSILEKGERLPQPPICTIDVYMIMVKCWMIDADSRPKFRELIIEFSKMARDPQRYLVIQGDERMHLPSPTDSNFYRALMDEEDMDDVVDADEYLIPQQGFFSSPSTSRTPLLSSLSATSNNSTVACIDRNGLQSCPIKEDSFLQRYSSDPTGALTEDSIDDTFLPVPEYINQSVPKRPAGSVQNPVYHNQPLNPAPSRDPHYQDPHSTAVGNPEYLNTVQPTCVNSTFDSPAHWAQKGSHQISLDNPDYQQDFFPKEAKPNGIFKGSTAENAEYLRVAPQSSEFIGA
- ASSAY PROCEDURE: HTRF Phospho EGFR TMLRCS assay (cellular), BaF3-TMLRCS cells
- CONDITIONS USED: BaF3-TMLRCS cell line, 4 hours incubation
ASSAY ENDPOINT: pIC50
Keep in mind that pIC50 stands for -log10 of concentration in molar terms.

A selection of reference data follows.
COMPOUND: O=C(Nc1nccs1)C(c1ncn2c1CCC2)N1Cc2c(F)cc(-c3ccc(C45CC(CN6CCCC6)(C4)C5)cc3)cc2C1=O (racemic) [Example 5]
ASSAY ENDPOINT: pIC50
MEASUREMENT: 7.89
--
COMPOUND: O=C(Nc1nccs1)C(c1ncn2c1CCC2)N1Cc2c(F)cc(-c3ccc(C45CC(CN6CCC(O)CC6)(C4)C5)cc3)cc2C1=O (racemic) [Example 4]
ASSAY ENDPOINT: pIC50
MEASUREMENT: 7.89
--
COMPOUND: O=C(Nc1nccs1)C(c1ncn2c1CCC2)N1Cc2c(F)cc(-c3ccc(C45CC(CN6CCCC(O)CC6)(C4)C5)cc3)cc2C1=O (racemic) [Example 6]
ASSAY ENDPOINT: pIC50
MEASUREMENT: 8.10

Turning now to a further compound:
If you can, please state the reported pIC50 value of CN(C)CC12CC(c3ccc(-c4cc(F)c5c(c4)C(=O)N(C(C(=O)Nc4nccs4)c4ncn6c4CCC6)C5)cc3)(C1)C2 (racemic) [Example 3] .
8.00
